The measurements presented in this section are drawn from the NIST ThermoML archive (doi:10.1021/je300692s).

Experiment: activity coefficient (dimensionless); of the first substance listed, at infinite dilution; xn = mol fraction of the nth substance listed
Settings: 342.8 K; 101 kPa; Liquid; Chromatography; x1 = 0
// not met strictly below 2 in activity coefficient; met otherwise

- Compound: "Cc1ccccc1C [1,2-dimethylbenzene] + CCCCCCCCCC[N+]1(C)CCCC1.O=S(=O)([N-]S(=O)(=O)C(F)(F)F)C(F)(F)F"
  Label value: "not met"
- Compound: "C#CCCCCC [1-heptyne] + CCCCCCCCCC[N+]1(C)CCCC1.O=S(=O)([N-]S(=O)(=O)C(F)(F)F)C(F)(F)F"
  Label value: "not met"
- Compound: "C=CCCCC [hex-1-ene] + CCCCCCCCCC[N+]1(C)CCCC1.O=S(=O)([N-]S(=O)(=O)C(F)(F)F)C(F)(F)F"
  Label value: "met"
- Compound: "CCO [ethanol] + CCCCCCCCCC[N+]1(C)CCCC1.O=S(=O)([N-]S(=O)(=O)C(F)(F)F)C(F)(F)F"
  Label value: "not met"
- Compound: "CC1CCCCC1 [methylcyclohexane] + CCCCCCCCCC[N+]1(C)CCCC1.O=S(=O)([N-]S(=O)(=O)C(F)(F)F)C(F)(F)F"
  Label value: "met"
- Compound: "ClC(Cl)Cl [trichloromethane] + CCCCCCCCCC[N+]1(C)CCCC1.O=S(=O)([N-]S(=O)(=O)C(F)(F)F)C(F)(F)F"
  Label value: "not met"
- Compound: "CCOCC [diethyl ether] + CCCCCCCCCC[N+]1(C)CCCC1.O=S(=O)([N-]S(=O)(=O)C(F)(F)F)C(F)(F)F"
  Label value: "not met"
- Compound: "C1CCCCC1 [cyclohexane] + CCCCCCCCCC[N+]1(C)CCCC1.O=S(=O)([N-]S(=O)(=O)C(F)(F)F)C(F)(F)F"
  Label value: "met"

====

Experiment: activity coefficient (dimensionless); of the first substance listed, at infinite dilution; xn = mol fraction of the nth substance listed
Details: 322.9 K; 101 kPa; Liquid; Chromatography; x1 = 0
// FALSE strictly below 1 in activity coefficient; TRUE otherwise

- Compound: "CCC(=O)CC [pentan-3-one] + CCCCCC[N+]1(C)CCCC1.O=S(=O)([N-]S(=O)(=O)C(F)(F)F)C(F)(F)F"
  Label value: "FALSE"
- Compound: "CC1CCCCC1 [methylcyclohexane] + CCCCCC[N+]1(C)CCCC1.O=S(=O)([N-]S(=O)(=O)C(F)(F)F)C(F)(F)F"
  Label value: "TRUE"
- Compound: "C#CCCCCC [1-heptyne] + CCCCCC[N+]1(C)CCCC1.O=S(=O)([N-]S(=O)(=O)C(F)(F)F)C(F)(F)F"
  Label value: "TRUE"
- Compound: "CCC[N+](=O)[O-] [1-nitropropane] + CCCCCC[N+]1(C)CCCC1.O=S(=O)([N-]S(=O)(=O)C(F)(F)F)C(F)(F)F"
  Label value: "FALSE"
- Compound: "Cc1ccc(C)cc1 [1,4-dimethylbenzene] + CCCCCC[N+]1(C)CCCC1.O=S(=O)([N-]S(=O)(=O)C(F)(F)F)C(F)(F)F"
  Label value: "TRUE"
- Compound: "CC(C)OC(C)C [diisopropyl ether] + CCCCCC[N+]1(C)CCCC1.O=S(=O)([N-]S(=O)(=O)C(F)(F)F)C(F)(F)F"
  Label value: "TRUE"
